# Tested on: A431 cells
# EXPERIMENTAL_PROTOCOL: Dose response / cell viability in A431 cells
# Assay type: cell-based, human
# TEST_PARAMETERS: Homo sapiens, A-431; printed as A431 treated with Panobinostat, in the sentence on CHLA06 cells; FIG. 24B; read-out: IC50
pIC50: −log10 of the molar value.
PROPERTY_MEASURED: pIC50

INSERT INTO assay_data (compound, test_result) VALUES
  ('Cc1[nH]c2ccccc2c1CCNCc1ccc(/C=C/C(=O)NO)cc1 [Panobinostat, reference compound]', '< 6.30');

###

# System: A431 cells
# EXPERIMENTAL_PROTOCOL: Dose response / cell viability in A431 cells
# Type: cell-based, human
# TEST_PARAMETERS: Homo sapiens, A-431; A431 cells; FIG. 20B, FIG. 24A; read-out: IC50 value
pIC50: −log10 of the molar value.
PROPERTY_MEASURED: pIC50

INSERT INTO measurements (molecule, test_result) VALUES
  ('Cc1[nH]c2ccccc2c1CCNCc1ccc(/C=C/C(=O)NO)cc1 [Panobinostat, reference compound]', 6.97);
